Reference source: patent US8658604B2

# subject-of-test: Elastase from human neutrophils (Homo sapiens, UniProt P08246)
# Sequence (P08246 30-267): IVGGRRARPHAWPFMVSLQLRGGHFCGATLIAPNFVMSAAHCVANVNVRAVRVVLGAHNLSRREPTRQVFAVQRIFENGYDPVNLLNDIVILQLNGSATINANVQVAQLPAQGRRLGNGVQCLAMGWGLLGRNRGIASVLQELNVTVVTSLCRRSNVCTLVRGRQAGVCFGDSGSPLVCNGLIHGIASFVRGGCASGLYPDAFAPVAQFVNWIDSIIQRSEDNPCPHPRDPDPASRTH
# assay-comment: Enzymatic assay, elastase
# test-parameters: Elastase IC50
Where a SMILES comes first, the peptide text is derived from it.
IC50 reference

{"compound": "CCCC[C@@H]1NC(=O)[C@@H]2CCCN2C(=O)[C@H]2CCCN2C(=O)[C@H](Cc2ccc(O)cc2)NC(=O)[C@H](CCCNC(=N)N)NC(=O)[C@H](CCC(N)=O)NC(=O)[C@@H]2CCCN2C(=O)[C@@H]2CCCN2C(=O)[C@H]([C@@H](C)CC)NC(=O)[C@H](CO)NC(=O)[C@H](C)NC(=O)[C@H]([C@@H](C)O)NC(=O)[C@H](CCC(=O)O)NC1=O [Ex. 105] (HELM PEPTIDE1{[Nle].E.T.A.S.I.P.P.Q.R.Y.[dP].P}$PEPTIDE1,PEPTIDE1,1:R1-13:R2$$$V2.0)", "subject-of-test": "Elastase from human neutrophils (Homo sapiens, UniProt P08246)", "IC50": "34 nM"}
{"compound": "CC[C@H](C)[C@@H]1NC(=O)[C@@H]2CCCN2C(=O)[C@@H]2CCCN2C(=O)[C@H](CC(=O)O)NC(=O)[C@H](CO)NC(=O)[C@H](CCCCN)NC(=O)[C@H]([C@@H](C)O)NC(=O)[C@@H]2CSSC[C@H](NC1=O)C(=O)N[C@@H](CC(=O)O)C(=O)N1CCC[C@@H]1C(=O)N1CCC[C@H]1C(=O)N[C@@H](C1CCCCC1)C(=O)N2 [Ex. 39] (HELM PEPTIDE1{[O=C([C@@H](N[*:1])C1CCCCC1)[*:2]].C.T.K.S.D.P.P.I.C.D.[dP].P}$PEPTIDE1,PEPTIDE1,2:R3-10:R3|PEPTIDE1,PEPTIDE1,1:R1-13:R2$$$V2.0)", "subject-of-test": "Elastase from human neutrophils (Homo sapiens, UniProt P08246)", "IC50": "> 100000 nM"}
